measurementTarget: T1, Rb^P S474R (human, UniProt P06400 380-788, S474R)
T1 construct: also called variant 13
T1 sequence (looked up): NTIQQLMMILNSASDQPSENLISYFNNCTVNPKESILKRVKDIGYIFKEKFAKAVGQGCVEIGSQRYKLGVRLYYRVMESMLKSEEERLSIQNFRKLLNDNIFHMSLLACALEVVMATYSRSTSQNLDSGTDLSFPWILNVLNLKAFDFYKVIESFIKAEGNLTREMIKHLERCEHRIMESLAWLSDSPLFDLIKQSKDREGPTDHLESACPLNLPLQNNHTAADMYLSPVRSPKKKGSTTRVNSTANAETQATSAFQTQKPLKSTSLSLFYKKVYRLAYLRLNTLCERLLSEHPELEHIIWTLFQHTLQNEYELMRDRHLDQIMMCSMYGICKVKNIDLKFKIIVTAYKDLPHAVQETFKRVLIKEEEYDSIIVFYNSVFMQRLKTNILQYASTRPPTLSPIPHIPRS
experimentalProtocol: fluorescence polarisation; 25 °C; unlabeled Rb^P titrated against 1.5 nM TMR-E2F1^TD or 7.5 nM TMR-E7^LxCxE; 25 mM Tris pH 8.0, 200 mM NaCl, 1 mM DTT, 0.1% Tween-20; 2 min incubation; quadratic fit; apparent Kd for the variants, Kd for WT
measurementConditions: both partners purified
pKd: −log10 of the molar value. No end group written: not given here. TMR = tetramethyl rhodamine dye
readout: pKd

INSERT INTO results (binder, measured) VALUES
  ('DLYCYEQLN (also: TMR label, position not given here, source: synthetic peptide, bought: GenScript) [TMR-E7^LxCxE, LxCxE peptide of the E7 oncoprotein from HPV]', 8.30),
  ('{TMR}-GEGIRDLFDCDFGDLTPLD (also called E2F^TD; source: synthetic peptide, bought: GenScript) [TMR-E2F1^TD, peptide of the E2F1 transactivation domain]', 6.44);
